All values here come from ChEMBL document CHEMBL1961873.

test-system: MAP kinase-activated protein kinase 5 (Homo sapiens) (UniProt Q8IW41);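 note: mean inhibition of PRAK measured in the GSK PKIS screen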
Sequence (whole entry): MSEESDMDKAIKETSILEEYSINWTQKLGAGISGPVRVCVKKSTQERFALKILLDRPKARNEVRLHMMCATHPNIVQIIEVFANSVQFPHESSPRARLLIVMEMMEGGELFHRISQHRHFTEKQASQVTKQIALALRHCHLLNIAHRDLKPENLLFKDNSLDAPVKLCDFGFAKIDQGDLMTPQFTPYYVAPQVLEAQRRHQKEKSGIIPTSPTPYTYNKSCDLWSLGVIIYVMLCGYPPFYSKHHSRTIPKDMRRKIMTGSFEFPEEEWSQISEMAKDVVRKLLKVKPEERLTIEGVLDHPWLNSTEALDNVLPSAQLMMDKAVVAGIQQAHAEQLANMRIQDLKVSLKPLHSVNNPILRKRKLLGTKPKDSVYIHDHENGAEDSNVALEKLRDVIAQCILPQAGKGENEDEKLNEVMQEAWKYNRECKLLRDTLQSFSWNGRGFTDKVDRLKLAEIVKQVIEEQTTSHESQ
condition-parameters: at 1 µM
So I've got a bunch of molecules here, and I need their inhibition values.
Numbers only here, please. The scale is %.

(Q) Looking for the measured inhibition of O=C1NC(=O)C(c2cccc(Cl)c2)=C1Nc1ccc(Cl)c(C(=O)O)c1 , can you help?
(A) 2.67

(Q) Looking for the measured inhibition of O=C1Nc2ccccc2/C1=C/Nc1ccc(-n2cncn2)cc1 , can you help?
(A) 4.02

(Q) Looking for the measured inhibition of CN(C)c1ccc2c(c1)/C(=C/Nc1ccc(S(N)(=O)=O)cc1)C(=O)N2 , can you help?
(A) 0.46

(Q) Looking for the measured inhibition of CNC(=O)c1cncc(/C=C/c2c(C)cccc2C)c1 , can you help?
(A) -0.41

(Q) Looking for the measured inhibition of FC(F)(F)c1cccc(Nc2nccc(-c3cnn4nc(-c5ccccc5)ccc34)n2)c1 , can you help?
(A) 0.4

(Q) Looking for the measured inhibition of CCc1nccc2c1nc(-c1nonc1N)n2CC , can you help?
(A) -1.56

(Q) Looking for the measured inhibition of O=C(Nc1n[nH]c2nc(-c3ccco3)ccc12)C1CC1 , can you help?
(A) -1.25

(Q) Looking for the measured inhibition of COc1ccc2ncn(-c3cc(O[C@H](C)c4ccccc4Cl)c(C(N)=O)s3)c2c1 , can you help?
(A) 1.26

(Q) Looking for the measured inhibition of CCS(=O)(=O)c1ccc(OC)c(Nc2ncc(-c3cccc(-c4ccccc4F)c3)o2)c1 , can you help?
(A) -0.29

(Q) Looking for the measured inhibition of COc1cc(C)c(N(C)C(=O)CN(C)C)cc1Nc1nc(Nc2cccc(F)c2C(N)=O)c2cc[nH]c2n1 , can you help?
(A) -1.14

(Q) Looking for the measured inhibition of CN(C)CCOc1ccc(-c2cc(-c3ccc4c(c3)CCC4=NO)c(-c3ccncc3)o2)cc1 , can you help?
(A) -0.04

(Q) Looking for the measured inhibition of COc1cc(Nc2ncc(-c3ccccc3)o2)cc(OC)c1OC , can you help?
(A) 0.01

(Q) Looking for the measured inhibition of CN(C)CCCNc1nccc(-c2c(-c3ccc(F)cc3)nn3cc(C(F)(F)F)ccc23)n1 , can you help?
(A) -0.97

(Q) Looking for the measured inhibition of NC(=O)c1cc(-c2ccncc2)cc(-c2ccccc2)c1N , can you help?
(A) 2.24

(Q) Looking for the measured inhibition of CN(c1ccc(NC(=O)Nc2c(Cl)cccc2Cl)cc1)c1ccnc(Nc2cccc(CS(C)(=O)=O)c2)n1 , can you help?
(A) 1.46

(Q) Looking for the measured inhibition of c1ccc(-c2n[nH]cc2-c2ccnc(-c3ccc(OCCN4CCOCC4)cc3)c2)nc1 , can you help?
(A) -0.78

(Q) Looking for the measured inhibition of COc1ccc(C2=C(N3CCc4ccccc43)C(=O)NC2=O)cc1 , can you help?
(A) 2.12

(Q) Looking for the measured inhibition of Clc1ccc(CNc2nccc(-c3cnn4ncccc34)n2)cc1 , can you help?
(A) 0.03

(Q) Looking for the measured inhibition of NS(=O)(=O)c1ccc(N/N=C2\C(=O)Nc3ccc(-c4cnco4)cc32)cc1 , can you help?
(A) 3.26

(Q) Looking for the measured inhibition of C#Cc1cccc(Nc2ncnc3ccc(OCCCCNCCS(C)(=O)=O)cc23)c1 , can you help?
(A) 2.73

(Q) Looking for the measured inhibition of COc1cc(Nc2ncc3c(C)nc(-c4cccc(C(F)(F)F)c4)n3n2)cc(OC)c1OC , can you help?
(A) 2.92

(Q) Looking for the measured inhibition of NS(=O)(=O)c1ccc(N/N=C2\C(=O)Nc3ccc(C(=O)NCCCn4ccnc4)cc32)cc1 , can you help?
(A) 4.54

(Q) Looking for the measured inhibition of NCc1ccc(-n2c(-c3nonc3N)nc3cnccc32)cc1 , can you help?
(A) 1.55

(Q) Looking for the measured inhibition of COc1cc(Nc2ncc3c(C)nc(-c4cccc(Oc5ccccc5)c4)n3n2)cc(OC)c1OC , can you help?
(A) -1.56

(Q) Looking for the measured inhibition of COc1cc2ncn(-c3cc(OCCc4ccccc4)c(C(N)=O)s3)c2cc1OC , can you help?
(A) -0.58

(Q) Looking for the measured inhibition of COc1ccc(-c2ccc3c(NC(=O)C4CC4)n[nH]c3n2)cc1 , can you help?
(A) 2.54

(Q) Looking for the measured inhibition of C[C@@H](Oc1cc(-n2cnc3ccc(OCC4CCN(C)CC4)cc32)sc1C(N)=O)c1ccccc1Cl , can you help?
(A) 2.11

(Q) Looking for the measured inhibition of Cc1nnc(-c2ccc(C)c(-c3ccc(C(=O)NCc4ccc(Cl)cc4)cc3)c2)o1 , can you help?
(A) 2.59

(Q) Looking for the measured inhibition of O=C(Nc1n[nH]c2cc(-c3cc(F)ccc3F)ccc12)C1CC1 , can you help?
(A) 0.41

(Q) Looking for the measured inhibition of CCc1cccc(CC)c1/C=C/c1cncc(C(=O)NC)c1 , can you help?
(A) -0.1

(Q) Looking for the measured inhibition of Fc1ccc(-c2nc3n(c2-c2ccncc2)CCS3)cc1 , can you help?
(A) 0.34

(Q) Looking for the measured inhibition of Fc1ccc(-c2c(-c3ccncc3)nc3n2CCS3)cc1 , can you help?
(A) 1.61

(Q) Looking for the measured inhibition of O=C(NCC1CC1)c1ccc(-c2cccc(C(=O)NC3CC3)c2)cc1 , can you help?
(A) -0.88

(Q) Looking for the measured inhibition of Cc1ccc(NC(=O)c2ccoc2)cc1-c1ccc(C(=O)NCC2CC2)cc1 , can you help?
(A) 0.83

(Q) Looking for the measured inhibition of COc1ccc2cc(-c3c(-c4ccncc4)nc(-c4ccc([S+](C)[O-])cc4C)n3C)ccc2c1 (stereo not given) , can you help?
(A) -0.31

====

test-system: Non-receptor tyrosine-protein kinase TYK2 (Homo sapiens) (UniProt P29597);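 note: values are mean percent inhibition of TYK2 kinase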
Sequence (P29597 whole entry): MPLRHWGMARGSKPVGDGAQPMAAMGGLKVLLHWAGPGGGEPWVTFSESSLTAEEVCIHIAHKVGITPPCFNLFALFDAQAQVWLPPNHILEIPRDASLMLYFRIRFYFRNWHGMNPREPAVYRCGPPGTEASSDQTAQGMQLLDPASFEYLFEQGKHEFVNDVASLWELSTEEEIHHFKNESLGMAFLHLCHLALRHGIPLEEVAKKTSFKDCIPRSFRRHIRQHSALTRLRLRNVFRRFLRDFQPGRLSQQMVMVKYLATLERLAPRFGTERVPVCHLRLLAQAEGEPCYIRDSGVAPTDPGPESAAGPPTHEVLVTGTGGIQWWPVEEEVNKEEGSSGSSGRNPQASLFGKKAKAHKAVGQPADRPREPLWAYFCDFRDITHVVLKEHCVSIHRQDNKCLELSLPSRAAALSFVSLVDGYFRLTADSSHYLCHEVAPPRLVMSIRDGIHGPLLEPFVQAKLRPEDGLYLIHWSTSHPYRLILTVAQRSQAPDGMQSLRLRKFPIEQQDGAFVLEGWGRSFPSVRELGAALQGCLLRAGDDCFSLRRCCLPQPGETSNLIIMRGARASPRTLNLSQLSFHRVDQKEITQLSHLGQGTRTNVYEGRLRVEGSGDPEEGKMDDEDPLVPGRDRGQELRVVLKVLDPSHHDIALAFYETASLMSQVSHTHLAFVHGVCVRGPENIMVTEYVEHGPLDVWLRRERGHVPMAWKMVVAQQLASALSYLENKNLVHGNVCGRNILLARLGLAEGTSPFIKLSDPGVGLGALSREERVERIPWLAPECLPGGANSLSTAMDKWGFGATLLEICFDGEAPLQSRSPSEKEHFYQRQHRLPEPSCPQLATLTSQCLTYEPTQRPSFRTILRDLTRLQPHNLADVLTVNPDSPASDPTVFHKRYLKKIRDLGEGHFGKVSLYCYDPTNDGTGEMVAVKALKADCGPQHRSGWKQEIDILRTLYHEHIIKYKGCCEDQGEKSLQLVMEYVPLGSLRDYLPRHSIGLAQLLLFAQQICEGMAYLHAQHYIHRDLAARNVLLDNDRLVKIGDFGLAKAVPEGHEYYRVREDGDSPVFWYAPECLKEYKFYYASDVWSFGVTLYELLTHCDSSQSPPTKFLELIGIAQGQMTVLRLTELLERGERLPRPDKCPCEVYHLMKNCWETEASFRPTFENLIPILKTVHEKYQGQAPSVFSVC
condition-parameters: at 1 µM
measured-endpoint: inhibition (%)
Numbers only here, please. The scale is %.

(Q) Looking for the measured inhibition of COc1cc(Nc2ncc3c(C)nc(-c4cccc(C(F)(F)F)c4)n3n2)cc(OC)c1OC , can you help?
(A) -1.24

(Q) Looking for the measured inhibition of NCc1ccc(-n2c(-c3nonc3N)nc3cnccc32)cc1 , can you help?
(A) -2.73

(Q) Looking for the measured inhibition of NS(=O)(=O)c1ccc(N/N=C2\C(=O)Nc3ccc(C(=O)NCCCn4ccnc4)cc32)cc1 , can you help?
(A) -1.72

(Q) Looking for the measured inhibition of O=C(Nc1n[nH]c2cc(-c3ccccc3)ccc12)C1CC1 , can you help?
(A) -4.78

(Q) Looking for the measured inhibition of COc1ccc2ncn(-c3cc(O[C@H](C)c4ccccc4Cl)c(C(N)=O)s3)c2c1 , can you help?
(A) -5.78

(Q) Looking for the measured inhibition of CCC(=O)Nc1ccc(C)c(-c2ccc(C(=O)NCC3CC3)cc2)c1 , can you help?
(A) -0.87

====

test-system: Serine/threonine-protein kinase Nek7 (Homo sapiens);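 note: reported values are mean inhibition of NEK7 from the GSK PKIS kinase screening panel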
condition-parameters: at 1 µM
measured-endpoint: inhibition (%)
Numbers only here, please. The scale is %.

(Q) Looking for the measured inhibition of Nc1nccc(-c2c(-c3ccc(F)cc3)ncn2C2CCC(O)CC2)n1 (stereo not given) , can you help?
(A) -4.78

(Q) Looking for the measured inhibition of CN(C)CCCNc1nccc(-c2c(-c3ccc(F)cc3)nn3cc(C(F)(F)F)ccc23)n1 , can you help?
(A) 1.37

(Q) Looking for the measured inhibition of C[C@@H](Oc1cc(-n2cnc3ccc(OC4CCN(C)CC4)cc32)sc1C(N)=O)c1ccccc1Cl , can you help?
(A) 8.62

(Q) Looking for the measured inhibition of COc1cc(C)c(N(C)C(=O)CN(C)C)cc1Nc1nc(Nc2cccc(F)c2C(N)=O)c2cc[nH]c2n1 , can you help?
(A) 2.22

(Q) Looking for the measured inhibition of COc1ccc2ncn(-c3cc(O[C@H](C)c4ccccc4Cl)c(C(N)=O)s3)c2c1 , can you help?
(A) 6.32

(Q) Looking for the measured inhibition of Fc1ccc(-c2ncn(C3CCNCC3)c2-c2ccnc(Oc3ccc(Oc4ccccc4)cc3)n2)cc1 , can you help?
(A) 9.34

(Q) Looking for the measured inhibition of O=C1Nc2ccc(I)cc2C1=Cc1cc(Br)c(O)c(Br)c1 , can you help?
(A) 10.6

(Q) Looking for the measured inhibition of Fc1ccc(-c2nc3n(c2-c2ccncc2)CCS3)cc1 , can you help?
(A) 2.5

(Q) Looking for the measured inhibition of NS(=O)(=O)c1ccc(N/N=C2\C(=O)Nc3ccc(-c4cnco4)cc32)cc1 , can you help?
(A) 8.73

(Q) Looking for the measured inhibition of Cc1ccc(C(=O)NC(C)C)cc1-c1ccc(C(=O)NCC2CC2)cc1 , can you help?
(A) -4.59
